test system: Caco-2; experiment: drug sensitivity score (DSS) for viability; higher = more toxic; extreme values may be limits of the assay; conditions: 72 h
# Lookup of reported drug sensitivity score keyed by entry

Known results for compounds:
• O=C(O)c1cc(O)c(O)c(O)c1 = 0
• COc1cc2c(cc1C(F)(F)F)N(C(=O)Nc1cc(F)cc(-c3cccnc3)c1)CC2 = 0
• CC1=C(/C=C/C(C)=C/C=C/C(C)=C/C=C/C=C(C)/C=C/C=C(C)/C=C/C2=C(C)CCCC2(C)C)C(C)(C)CCC1 = 0
• Cc1ccc([N+](=O)[O-])cc1S(=O)(=O)N(C)/N=C/c1cnc2ccc(Br)cn12 = 18.3
• CCCCCCOC(=O)CCC(=O)CN [hexaminolevulinate] = 0

Please look up its drug sensitivity score: O=[N+]([O-])c1cc([N+](=O)[O-])c(/C=C/c2ccc(Cl)c(Cl)c2)cc1/C=C/c1ccc(Cl)c(Cl)c1 0.1

Please look up its drug sensitivity score: CCC(CC)O[C@@H]1C=C(C(=O)O)C[C@H](N)[C@H]1NC(C)=O [oseltamivir-carboxylate] 0

Please look up its drug sensitivity score: Nc1nccc2c1ncn2[C@@H]1O[C@H](CO)[C@@H](O)[C@@H]1O 0

###

test system: U2OS; test: cell viability relative to DMSO; higher = less toxic; settings: 72 h; 1 nM
# Lookup of reported cell viability keyed by entry
Number in %, nothing else.

• S=C=Nc1ccc(N=C=S)cc1 [bitoscanate] = 94.2

Value wanted: cell viability (U2OS) of entry CC(C)c1cc(C(=O)N2Cc3ccc(CN4CCN(C)CC4)cc3C2)c(O)cc1O 101

Value wanted: cell viability (U2OS) of entry Oc1ccc2c(c1)CC[C@H](c1ccccc1)[C@@H]2c1ccc(OCCN2CCCC2)cc1 105

Value wanted: cell viability (U2OS) of entry CCCCc1nc2cc(/C=C/C(=O)NO)ccc2n1CCN(CC)CC 101

Value wanted: cell viability (U2OS) of entry Nc1ncnc2c1c(COc1cccc(Cl)c1)nn2C1CCOCC1 92.5

###

test system: U2OS; assay: cell viability relative to DMSO; higher = less toxic; conditions: 72 h; 1000 nM
valueType: cell viability
Hi, when you answer, please include the unit after the number. Thanks!

Known results for molecules:
• Nc1nc2c(ccc3ccccc32)s1 = 102%
• O=C(O)c1cc(O)c(O)c(O)c1 = 97.3%

Value wanted: cell viability (U2OS) of entry COc1cc(OC)c2c(=O)[nH]c(-c3cc(C)c(OCCO)c(C)c3)nc2c1 96.8%

###

tested on: U2OS; test: cell viability relative to DMSO; higher = less toxic; settings: 72 h; 100 nM
# Lookup of reported cell viability keyed by entry
Number in %, nothing else.

Known results for compounds:
• Cc1ccc(C(=O)C(C)CN2CCCCC2)cc1 (centres undefined) [tolperisone] = 97.2
• C#Cc1cccc(Nc2ncnc3cc4c(cc23)OCCOCCOCCO4)c1 [icotinib] = 98.1
• COc1ccc2[nH]c([S@@+]([O-])Cc3ncc(C)c(OC)c3C)nc2c1 [esomeprazole] = 95
• COc1cc(N)c(Cl)cc1C(=O)OCCCN1CCCCC1 = 98.1
• C[C@@H]1CN(Cc2ccc(F)cc2)CCN1C(=O)COc1ccc(Cl)cc1NC(N)=O = 99.3
• Nc1ncnc2c1c(COc1cccc(Cl)c1)nn2C1CCOCC1 = 94.9
• Cc1ccc(C(=O)Cn2c3c(sc2=N)CCCC3)cc1 [pifithrin-alpha] = 92.9
• O=C1NC(=O)c2c1c1c3ccccc3[nH]c1c1[nH]c3ccccc3c21 [arcyriaflavin-a] = 101
• O=C(/C=C/c1ccc2c(c1)OCO2)N1CCCCC1 [ilepcimide] = 98.3
• O=c1cc(-c2ccccc2)oc2cc(O)cc(O)c12 [chrysin] = 101

Value wanted: cell viability (U2OS) of entry COC(=O)N1CC[C@@H]2[C@H]1CCC[C@@]2(O)C#Cc1cccc(C)c1 [mavoglurant] 102

Value wanted: cell viability (U2OS) of entry C[C@H](CCC(=O)O)[C@H]1CC[C@H]2[C@@H]3[C@H](O)C[C@@H]4C[C@H](O)CC[C@]4(C)[C@H]3C[C@H](O)[C@]12C [cholic-acid] 93.5

Value wanted: cell viability (U2OS) of entry COC1=CC(=O)C[C@@H](C)[C@]12Oc1c(Cl)c(OC)cc(OC)c1C2=O [griseofulvin] 102

###

tested on: HepG2; assay: cell viability relative to DMSO; higher = less toxic; settings: 72 h; 100 nM
valueType: cell viability (%)
Number in %, nothing else.

- CCOC(=O)N[C@@H]1CC[C@@H]2[C@@H](C1)C[C@H]1C(=O)O[C@H](C)[C@H]1[C@H]2/C=C/c1ccc(-c2cccc(F)c2)cn1: 100

Please look up its cell viability: CCOc1ccc2nc3cc(N)ccc3c(N)c2c1 [ethacridine-lactate-monohydrate] 124

Please look up its cell viability: O=C1c2ccccc2C(=O)C1c1ccccc1 93.7

Please look up its cell viability: C#C[C@]1(O)CC[C@H]2[C@@H]3CCC4=CC(=O)CC[C@@H]4[C@H]3C(=C)C[C@@]21CC 94.1

###

test system: HepG2; assay: drug sensitivity score (DSS) for viability; higher = more toxic; extreme values may be limits of the assay; settings: 72 h
# Lookup of reported drug sensitivity score keyed by entry
// return just the number, without any unit appended

- C[C@@H]1CN(Cc2ccc(F)cc2)CCN1C(=O)COc1ccc(Cl)cc1NC(N)=O: 10.8
- Cn1cc(C[C@@H](N)C(=O)O)c2ccccc21 [indoximod]: 0
- Cc1cccc(N(C)C(=S)Oc2ccc3ccccc3c2)c1 [tolnaftate]: 0
- CCC(NC(C)C)C(O)c1ccc(O)c(O)c1 (stereo not drawn) [isoetharine]: 0
- O=C(c1ccc(OCCCc2c[nH]cn2)cc1)C1CC1 [ciproxifan]: 4.1
- COc1cc2ncnc(Nc3ccc(Oc4ccccc4)cc3)c2cc1OC [SRC-kinase-inhibitor-I]: 0.1
- CN[C@@H](C)C(=O)N[C@H](C(=O)N1CCC[C@H]1C(=O)N[C@H]1c2ccccc2C[C@H]1OCC#CC#CCO[C@@H]1Cc2ccccc2[C@@H]1NC(=O)[C@@H]1CCCN1C(=O)[C@@H](NC(=O)[C@H](C)NC)C1CCCCC1)C1CCCCC1 [AZD5582]: 0

Please look up its drug sensitivity score: N[C@@H]1CONC1=O [cycloserine-(D)] 0

###

system: Caco-2; assay: cell viability relative to DMSO; higher = less toxic; conditions: 72 h; 100 nM
# Lookup of reported cell viability keyed by entry
Number in %, nothing else.

Please look up its cell viability: CSc1nc(N)cc(Oc2ccc(-c3nnc(Nc4cccc(C(F)(F)F)c4)[nH]3)cc2)n1 105

Please look up its cell viability: CCn1c(=O)n([C@H]2CCCN(c3nccc(-c4cc5ccccc5o4)n3)C2)c2ccccc21 85.1

Please look up its cell viability: C[C@@]12CCc3occc3[C@H]1CC[C@@]13C[C@@H](CC[C@H]12)[C@@](O)(CO)C3 104

Please look up its cell viability: C=Cc1cc(O)cc2nc(-c3ccc(O)c(F)c3)oc12 88.7

###

test system: Calu-3; assay: drug sensitivity score (DSS) for viability; higher = more toxic; extreme values may be limits of the assay; settings: 72 h
valueType: drug sensitivity score
// return just the number, without any unit appended

• O=C(/C=C/c1ccc2c(c1)OCO2)N1CCCCC1 [ilepcimide] = 0
• C[C@@H]1CN(Cc2ccc(F)cc2)CCN1C(=O)COc1ccc(Cl)cc1NC(N)=O = 0.1

Now look at this entry.
Please look up its drug sensitivity score: O=c1cc(-c2cccc3c2Sc2ccccc2S3)oc(N2CCOCC2)c1 0

###

system: Vero E6; test: cell viability relative to DMSO; higher = less toxic; details: 72 h; 1000 nM
valueType: cell viability

Known results for compounds:
* O=C(NO)c1cnc(N2CCN(S(=O)(=O)c3ccc4ccccc4c3)CC2)nc1 | 79.2%
* CC(C)(C)C(=O)CN1C(=O)[C@H](NC(=O)Nc2cccc(C(=O)O)c2)CN(C2CCCCC2)c2ccccc21 [nastorazepide] | 105%

Please look up its cell viability: CN1CC[C@H](c2c(O)cc(O)c3c(=O)cc(-c4ccccc4Cl)oc23)[C@H](O)C1 5.5%

Please look up its cell viability: O=C(/C=C/c1ccc2c(c1)OCO2)N1CCCCC1 [ilepcimide] 96.6%

###

# Lookup of reported cell viability keyed by entry
tested on: U2OS; experiment: cell viability relative to DMSO; higher = less toxic; conditions: 72 h; 1 nM
Number in %, nothing else.

Please look up its cell viability: CC(C)(C)NCC(O)c1cc(Cl)c(N)c(C(F)(F)F)c1 (centres undefined) 97.2

Please look up its cell viability: N=C1CCCN1Cc1[nH]c(=O)[nH]c(=O)c1Cl 97.4

Please look up its cell viability: Nc1ccn([C@@H]2O[C@H](CO)[C@@H](O)[C@@H]2O)c(=O)n1 103

Please look up its cell viability: CCOC(=O)N[C@@H]1CC[C@@H]2[C@@H](C1)C[C@H]1C(=O)O[C@H](C)[C@H]1[C@H]2/C=C/c1ccc(-c2cccc(F)c2)cn1 102
